Here's a batch of compounds along with measured Kd for Cyp D (Homo sapiens).
measurement_label: Kd (µM)

- C#CCN(Cc1cc(F)c(N)c(F)c1)C(=O)NCC(=O)N1CCC[C@@H]1c1ccccc1SC: 5.85
- CSc1ccccc1[C@@H]1CCCN1C(=O)CNC(=O)N(Cc1ccc2c(c1)[C@@H]1C[C@@H](N2)[C@H](O)CO1)Cc1nnn(C)n1: 0.4
- CSc1ccccc1[C@H]1CCCN1C(=O)CNC(=O)N(Cc1cnc(N)nc1)Cc1nnc(C)s1: 1.2
- CSc1ccccc1[C@H]1CCCN1C(=O)CNC(=O)N(Cc1ccc(N)cc1)Cc1nnn(C)n1: 0.08
- CSc1ccccc1[C@H]1CCCN1C(=O)CNC(=O)N(Cc1cc(F)c(N)c(F)c1)Cc1cn(C)nn1: 2.97
- CSc1ccccc1[C@H]1CCCN1C(=O)CNC(=O)N(Cc1ccc(N)c(Cl)c1)Cc1nnn(C)n1: 0.18
- Cn1nnc(CN(Cc2ccc(N)c(Cl)c2)C(=O)NCC(=O)N2CCC[C@@H]2c2ccccc2Br)n1: 0.58
- CSc1ccccc1[C@H]1CCCN1C(=O)CNC(=O)N(Cc1cnc(N)nc1)Cc1ncc(C)s1: 1.5
- CSc1ccccc1[C@H]1CCCN1C(=O)CN1C(=O)CN(Cc2cc(F)c(N)c(F)c2)C1=O: 6.3
- CSc1ccccc1[C@H]1CCCN1C(=O)CNC(=O)N(Cc1cnc(N)c(Cl)c1)Cc1nnc(C)s1: 2.4
- CSc1ccccc1[C@H]1CCCN1C(=O)CN1C(=O)N(Cc2ccc(N)c(Cl)c2)CC1=NNC(C)=O: 9.1
- CSc1ccccc1[C@H]1CCCN1C(=O)CNC(=O)N(Cc1cc(F)c(N)c(F)c1)Cc1nnn(C)n1: 1.01
